# IC50 annotations
- Test system: LAPC4
- ASSAY_REMARKS: Antiproliferative activity against human LAPC4 cells assessed as reduction in cell viability after 72 hrs by MTS assay
- Format: functional, cell-based
- PARTICULARS: LAPC4, 72 h
Field: numeric (µM). Do not append units.

>  <MOLECULE>
C#C[C@]1(O)CC[C@H]2[C@@H]3CCc4cc(OC)c(CN5CCN(C(=O)[C@@H]6CCCN6C(=O)c6ccc7ccccc7n6)CC5)cc4[C@H]3CC[C@@]21C

>  <NUMERIC_RESULT>
0.7

$$$$
>  <MOLECULE>
C#CC1(O)CC[C@H]2[C@@H]3CCc4cc(OP(=O)(O)O)c(N5CCN(C(=O)[C@@H]6CCCN6C(=O)c6ccc7ccccc7n6)CC5)cc4[C@H]3CC[C@@]21C (single isomer, unassigned)

>  <NUMERIC_RESULT>
0.3

$$$$
>  <MOLECULE>
C#C[C@]1(O)CC[C@H]2[C@@H]3CCc4cc(OC)c(C(=O)N5CCN(C(=O)[C@@H]6CCCN6C(=O)c6ccc7ccccc7n6)CC5)cc4[C@H]3CC[C@@]21C

>  <NUMERIC_RESULT>
0.5

$$$$

// moving on: another record for IC50
Please report IC50 for the following molecule: C#C[C@]1(O)CC[C@H]2[C@@H]3CCc4cc(OC)c(N5CCN(C(=O)[C@@H]6CCCN6C(=O)c6ccc7ccccc7n6)CC5)cc4[C@H]3CC[C@@]21C
0.6

====

- ASSAY_REMARKS: Solubility of compound in PBS at pH 7.4 at 300 uM after 24 hrs by HPLC-UV analysis
- Format: physicochemical
ASSAY_ENDPOINT: solubility at 24 h, 300 µM (µg/mL)
Field: numeric (µg/mL). Do not append units.

// solved cases for solubility at 24 h, 300 µM follow
>  <MOLECULE>
COc1ccc(Cl)cc1C(=O)NCCc1ccc(S(=O)(=O)NC(=O)NC2CCCCC2)cc1 [GLYBURIDE]

>  <solubility at 24 h, 300 µM / µg/mL>
6.7

$$$$
>  <MOLECULE>
CCCSc1ccc2nc(NC(=O)OC)[nH]c2c1

>  <solubility at 24 h, 300 µM / µg/mL>
0.52

$$$$
>  <MOLECULE>
C#C[C@]1(O)CC[C@H]2[C@@H]3CCc4cc(OC)c(N5CCN(C(=O)[C@@H]6CCCN6C(=O)c6ccc7ccccc7n6)CC5)cc4[C@H]3CC[C@@]21C

>  <solubility at 24 h, 300 µM / µg/mL>
2

$$$$
>  <MOLECULE>
CC(C)C(=O)Nc1ccc([N+](=O)[O-])c(C(F)(F)F)c1 [FLUTAMIDE]

>  <solubility at 24 h, 300 µM / µg/mL>
19.9

$$$$

// moving on: another record for solubility at 24 h, 300 µM
Please report solubility at 24 h, 300 µM for the following molecule: C#C[C@]1(O)CC[C@H]2[C@@H]3CC[C@H]4C[C@H](O)[C@@H](N5CCN(C(=O)[C@@H]6CCCN6C(=O)c6ccc7ccccc7n6)CC5)C[C@]4(C)[C@H]3CC[C@@]21C
9

====

- Tested on: MCF7
- ASSAY_REMARKS: Antiproliferative activity against human MCF7 cells assessed as reduction in cell viability after 72 hrs by MTS assay
- Type: functional, cell-based
- PARTICULARS: MCF7, 72 h
ASSAY_ENDPOINT: IC50 (nM)
Field: numeric (nM). Do not append units.

// solved cases for IC50 follow
>  <MOLECULE>
C#CC1(O)CC[C@H]2[C@@H]3CCc4cc(OS(N)(=O)=O)c(N5CCN(C(=O)[C@@H]6CCCN6C(=O)c6ccc7ccccc7n6)CC5)cc4[C@H]3CC[C@@]21C (single isomer, unassigned)

>  <ASSAY_ENDPOINT>
IC50

>  <READING_UNIT>
nM

>  <NUMERIC_RESULT>
1200

$$$$
>  <MOLECULE>
C#CC1(O)CC[C@H]2[C@@H]3CCc4cc(OC(C)=O)c(N5CCN(C(=O)[C@@H]6CCCN6C(=O)c6ccc7ccccc7n6)CC5)cc4[C@H]3CC[C@@]21C (single isomer, unassigned)

>  <ASSAY_ENDPOINT>
IC50

>  <READING_UNIT>
nM

>  <NUMERIC_RESULT>
1400

$$$$
>  <MOLECULE>
C#CC1(O)CC[C@H]2[C@@H]3CCc4cc(OP(=O)(O)O)c(N5CCN(C(=O)[C@@H]6CCCN6C(=O)c6ccc7ccccc7n6)CC5)cc4[C@H]3CC[C@@]21C (single isomer, unassigned)

>  <ASSAY_ENDPOINT>
IC50

>  <READING_UNIT>
nM

>  <NUMERIC_RESULT>
1500

$$$$

// moving on: another record for IC50
Please report IC50 for the following molecule: C#C[C@]1(O)CC[C@H]2[C@@H]3CCc4cc(OC)c(CN5CCN(C(=O)[C@@H]6CCCN6C(=O)c6ccc7ccccc7n6)CC5)cc4[C@H]3CC[C@@]21C
2300

====

- Tested on: PC-3
- ASSAY_REMARKS: Antiproliferative activity against human PC-3 cells assessed as reduction in cell viability after 72 hrs by MTS assay
- Assay type: functional, cell-based
- PARTICULARS: PC-3, 72 h
ASSAY_ENDPOINT: pIC50
Scale: pIC50 equals -log10([C]), with [C] in mol/L.

>  <COMPOUND>
C#C[C@]1(O)CC[C@H]2[C@@H]3CCc4cc(OC)c(N5CCN(C(=O)[C@@H]6CCCN6C(=O)c6ccc7ccccc7n6)CC5)cc4[C@H]3CC[C@@]21C

>  <ASSAY_SYSTEM>
PC-3

>  <pIC50>
5.80

$$$$
>  <COMPOUND>
C#CC1(O)CC[C@H]2[C@@H]3CCc4cc(OC(C)=O)c(N5CCN(C(=O)[C@@H]6CCCN6C(=O)c6ccc7ccccc7n6)CC5)cc4[C@H]3CC[C@@]21C (single isomer, unassigned)

>  <ASSAY_SYSTEM>
PC-3

>  <pIC50>
5.85

$$$$
>  <COMPOUND>
C#CC1(O)CC[C@H]2[C@@H]3CCc4cc(OP(=O)(O)O)c(N5CCN(C(=O)[C@@H]6CCCN6C(=O)c6ccc7ccccc7n6)CC5)cc4[C@H]3CC[C@@]21C (single isomer, unassigned)

>  <ASSAY_SYSTEM>
PC-3

>  <pIC50>
5.89

$$$$

// moving on: another record for pIC50
Please report pIC50 for the following compound: C#CC1(O)CC[C@H]2[C@@H]3CCc4cc(O)c(N5CCN(C(=O)[C@@H]6CCCN6C(=O)c6ccc7ccccc7n6)CC5)cc4[C@H]3CC[C@@]21C (single isomer, unassigned)
5.85

====

- System: OVCAR-3
- ASSAY_REMARKS: Antiproliferative activity against human OVCAR-3 cells assessed as reduction in cell viability at 1 to 5 uM after 72 hrs by MTS assay
- Format: functional, cell-based
- PARTICULARS: dose 1-5 µM
The source made the active and inactive calls. No cut-off for these calls is given here.
Outcomes you can answer with include only these: yes = active, no = inactive

Solved entries (count: 2):
>  <COMPOUND>
C#CC1(O)CC[C@H]2[C@@H]3CCc4cc(OC(C)=O)c(N5CCN(C(=O)[C@@H]6CCCN6C(=O)c6ccc7ccccc7n6)CC5)cc4[C@H]3CC[C@@]21C (single isomer, unassigned)

>  <LABEL_CLASS>
yes

$$$$
>  <COMPOUND>
C#CC1(O)CC[C@H]2[C@@H]3CCc4cc(O)c(N5CCN(C(=O)[C@@H]6CCCN6C(=O)c6ccc7ccccc7n6)CC5)cc4[C@H]3CC[C@@]21C (single isomer, unassigned)

>  <LABEL_CLASS>
yes

$$$$

As a next step, examine the compound that follows.
Record request — test call for C#CC1(O)CC[C@H]2[C@@H]3CCc4cc(OC(=O)N(CC)CC)c(N5CCN(C(=O)[C@@H]6CCCN6C(=O)c6ccc7ccccc7n6)CC5)cc4[C@H]3CC[C@@]21C (single isomer, unassigned)
no

====

# remaining at 1 h, 10 µM annotations
- ASSAY_REMARKS: Stability in human liver s9 fraction assessed as parent compound remaining at 10 uM after 1 hr by LC-MS analysis
- Assay type: ADME, subcellular
- PARTICULARS: read-out: Stabilty
Field: numeric (%). Do not append units.

// solved cases for remaining at 1 h, 10 µM follow
>  <MOLECULE>
C#CC1(O)CC[C@H]2[C@@H]3CCc4cc(OC(C)=O)c(N5CCN(C(=O)[C@@H]6CCCN6C(=O)c6ccc7ccccc7n6)CC5)cc4[C@H]3CC[C@@]21C (single isomer, unassigned)

>  <READING_UNIT>
%

>  <remaining at 1 h, 10 µM>
76

$$$$
>  <MOLECULE>
C#C[C@]1(O)CC[C@H]2[C@@H]3CCc4cc(OC)c(CN5CCN(C(=O)[C@@H]6CCCN6C(=O)c6ccc7ccccc7n6)CC5)cc4[C@H]3CC[C@@]21C

>  <READING_UNIT>
%

>  <remaining at 1 h, 10 µM>
76

$$$$
>  <MOLECULE>
C#CC1(O)CC[C@H]2[C@@H]3CCc4cc(OP(=O)(O)O)c(N5CCN(C(=O)[C@@H]6CCCN6C(=O)c6ccc7ccccc7n6)CC5)cc4[C@H]3CC[C@@]21C (single isomer, unassigned)

>  <READING_UNIT>
%

>  <remaining at 1 h, 10 µM>
52

$$$$

Please report remaining at 1 h, 10 µM for the following molecule: C#CC1(O)CC[C@H]2[C@@H]3CCc4cc(OC(=O)N(CC)CC)c(N5CCN(C(=O)[C@@H]6CCCN6C(=O)c6ccc7ccccc7n6)CC5)cc4[C@H]3CC[C@@]21C (single isomer, unassigned)
52

Please report remaining at 1 h, 10 µM for the following molecule: C#CC1(O)CC[C@H]2[C@@H]3CCc4ccc(N5CCN(C(=O)[C@@H]6CCCN6C(=O)c6ccc7ccccc7n6)CC5)cc4[C@H]3CC[C@@]21C (single isomer, unassigned)
35
